Cited source: paper PMC4099323

target: Catalase (from bovine liver) (Bos taurus, UniProt P00432); construct: Catalase (from bovine liver); purchased Sigma-Aldrich, St. Louis, MO, USA; host or cells: bovine liver; experiment: Isothermal titration calorimetry of catechins binding to catalase; conditions: ITC, 25°C; directly extracted from the experiment
endpointName: ΔS

# annotated cases, reported ΔS shown
Oc1cc(O)c2c(c1)OC(c1cc(O)c(O)c(O)c1)C(O)C2 (single isomer, unassigned; (-)) [EGC, (−)-epigallocatechin]	−1.07×10^7 cal/mol/K
Oc1cc(O)c2c(c1)O[C@H](c1ccc(O)c(O)c1)[C@H](O)C2 [EC, (−)-epicatechin]	−2.40×10^7 cal/mol/K
O=C(O[C@@H]1Cc2c(O)cc(O)cc2O[C@@H]1c1cc(O)c(O)c(O)c1)c1cc(O)c(O)c(O)c1 [EGCG, (−)-epigallocatechin gallate]	−1.48×10^3 cal/mol/K

Task: Notebook: pull reported ΔS for Catalase (from bovine liver) (Bos taurus, UniProt P00432), entry O=C(OC1Cc2c(O)cc(O)cc2OC1c1ccc(O)c(O)c1)c1cc(O)c(O)c(O)c1 (single isomer, unassigned; (-)) [ECG, (−)-epicatechin gallate]
Output: −2.60×10^3 cal/mol/K

* * *

Target: Catalase (from bovine liver) (Bos taurus, UniProt P00432)
Construct: Catalase (from bovine liver); purchased Sigma-Aldrich, St. Louis, MO, USA; host or cells: bovine liver
Sequence (P00432 2-527 limits assumed): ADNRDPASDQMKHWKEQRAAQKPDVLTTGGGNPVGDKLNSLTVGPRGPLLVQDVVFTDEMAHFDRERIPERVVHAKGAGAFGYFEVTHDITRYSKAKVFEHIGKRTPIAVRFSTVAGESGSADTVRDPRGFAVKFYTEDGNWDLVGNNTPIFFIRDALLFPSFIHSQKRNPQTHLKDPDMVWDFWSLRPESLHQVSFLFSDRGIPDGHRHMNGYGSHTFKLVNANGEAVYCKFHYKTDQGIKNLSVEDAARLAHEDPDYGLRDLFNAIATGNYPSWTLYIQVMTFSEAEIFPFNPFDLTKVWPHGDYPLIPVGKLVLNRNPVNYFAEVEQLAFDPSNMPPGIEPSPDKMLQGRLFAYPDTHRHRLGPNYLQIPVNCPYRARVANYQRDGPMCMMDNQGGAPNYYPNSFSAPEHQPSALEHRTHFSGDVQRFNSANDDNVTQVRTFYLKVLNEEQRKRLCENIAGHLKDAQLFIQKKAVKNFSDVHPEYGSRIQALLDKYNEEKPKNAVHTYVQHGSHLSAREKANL
Test: Isothermal titration calorimetry of catechins binding to catalase
Settings: one-site binding model, 25°C, from ΔG = −RT ln K; read-out: binding constant with catalase (ITC) (converted)
Kd overview
Field format: number, assumed µM, no unit text.

# annotated cases, reported Kd shown
Oc1cc(O)c2c(c1)OC(c1cc(O)c(O)c(O)c1)C(O)C2 (single isomer, unassigned; (-)) [EGC, (−)-epigallocatechin]	5.21
O=C(O[C@@H]1Cc2c(O)cc(O)cc2O[C@@H]1c1cc(O)c(O)c(O)c1)c1cc(O)c(O)c(O)c1 [EGCG, (−)-epigallocatechin gallate]	1.22
Oc1cc(O)c2c(c1)O[C@H](c1ccc(O)c(O)c1)[C@H](O)C2 [EC, (−)-epicatechin]	4.69

Task: // lookup Kd for O=C(OC1Cc2c(O)cc(O)cc2OC1c1ccc(O)c(O)c1)c1cc(O)c(O)c(O)c1 (single isomer, unassigned; (-)) [ECG, (−)-epicatechin gallate]
Output: 1.57
